tested on: HOP-62; assay: NCI 60 antitumor screening (single dose); format: cell-based; details: Homo sapiens; HOP-62 (non-small cell lung cancer), single dose 10 μM; read-out: Growth inhibition percentage (GI %)
Property Measured: inhibition at 10 µM (%)
Number only, in %; omit the unit.

| Compound | Val |
| --- | --- |
| Clc1cccc(/C=N/Nc2nc(N/N=C/c3cccc(Cl)c3Cl)nc(N3CCCCC3)n2)c1Cl | 1.81 |
| Oc1ccccc1/C=N/Nc1nc(N/N=C/c2ccccc2O)nc(N2CCOCC2)n1 | 74.3 |
| CN(C)c1ccc(/C=N/Nc2nc(N/N=C/c3ccc(N(C)C)cc3)nc(N3CCOCC3)n2)cc1 | -5.52 |
| O=[N+]([O-])c1cc(/C=N/Nc2nc(N/N=C/c3ccc(Cl)c([N+](=O)[O-])c3)nc(N3CCCCC3)n2)ccc1Cl | 56.3 |
| Brc1cccc(/C=N/Nc2nc(N/N=C/c3cccc(Br)c3)nc(N3CCCCC3)n2)c1 | -8.46 |

GET inhibition at 10 µM | system: HOP-62 | item: `Clc1cccc(/C=N/Nc2nc(N/N=C/c3cccc(Cl)c3)nc(N3CCCCC3)n2)c1`
-4.1

GET inhibition at 10 µM | system: HOP-62 | item: `Clc1cccc(/C=N/Nc2nc(N/N=C/c3cccc(Cl)c3)nc(N3CCOCC3)n2)c1`
-9.83

GET inhibition at 10 µM | system: HOP-62 | item: `C/C(=N\Nc1nc(N/N=C(\C)c2ccc([N+](=O)[O-])cc2)nc(N2CCOCC2)n1)c1ccc([N+](=O)[O-])cc1`
13.8

GET inhibition at 10 µM | system: HOP-62 | item: `Clc1cccc(/C=N/Nc2nc(N/N=C/c3cccc(Cl)c3Cl)nc(N3CCOCC3)n2)c1Cl`
-3.7

GET inhibition at 10 µM | system: HOP-62 | item: `Brc1ccccc1/C=N/Nc1nc(N/N=C/c2ccccc2Br)nc(N2CCOCC2)n1`
-8.36

---

system: 786-0; assay: NCI 60 antitumor screening (single dose / five doses); format: cell-based; conditions: Homo sapiens, 786-0, 786-0 (renal cancer), single dose 10 μM; read-out: Growth inhibition percentage (GI %)
The compounds listed here are annotated with their inhibition at 10 µM.
Number only, in %; omit the unit.

| Compound | System Tested | Units Symbol | Val |
| --- | --- | --- | --- |
| CN(C)c1ccc(/C=N/Nc2nc(N/N=C/c3ccc(N(C)C)cc3)nc(N3CCOCC3)n2)cc1 | 786-0 | % | 15.4 |
| C(=N\Nc1nc(N/N=C/c2ccc3c(c2)OCO3)nc(N2CCCCC2)n1)/c1ccc2c(c1)OCO2 | 786-0 | % | 13.4 |
| Oc1ccccc1/C=N/Nc1nc(N/N=C/c2ccccc2O)nc(N2CCCCC2)n1 | 786-0 | % | 26.8 |
| Oc1ccc(/C=N/Nc2nc(N/N=C/c3ccc(O)c(O)c3)nc(N3CCOCC3)n2)cc1O | 786-0 | % | -3.75 |

Tell me measured inhibition at 10 µM for `Clc1cccc(/C=N/Nc2nc(N/N=C/c3cccc(Cl)c3Cl)nc(N3CCOCC3)n2)c1Cl` please.
1.86

Tell me measured inhibition at 10 µM for `Brc1ccccc1/C=N/Nc1nc(N/N=C/c2ccccc2Br)nc(N2CCCCC2)n1` please.
1.09

Tell me measured inhibition at 10 µM for `Clc1cccc(/C=N/Nc2nc(N/N=C/c3cccc(Cl)c3)nc(N3CCCCC3)n2)c1` please.
4.76
